- testedSystem: CXXC5-Dvl interaction (PDZ domain of Dvl (dishevelled) protein / PTD-DBM-FITC)
- test: CXXC5-Dvl binding inhibition, competition of PTD-DBM-FITC on plate-bound Dvl PDZ domain
- setupConditions: purified Dvl PDZ domain 5 μg/mL, 10 μM PTD-DBM-FITC, compounds 0.001-100 μM, FITC fluorescence
pIC50: −log10 of the molar value. Counter-ions that a name gives are not always drawn.
observationType: pIC50

a. N#Cc1ccc2c(c1)/C(=C1/Nc3ccccc3/C1=N\OCCCN1CCSCC1)C(=O)N2
b. O=C1Nc2ccccc2/C1=C1/Nc2ccccc2C1=O [Indirubin, (Z)-[2,3′-biindolinylidene]-2′,3-dione, reference compound]
c. N#Cc1ccc2c(c1)/C(=C1/Nc3ccccc3/C1=N\OCCN1CCNCC1)C(=O)N2
[Q] Task for the reader: place the compounds above in descending order according to recorded pIC50. Lab note: final answer is the ordered label list.
[A] a, c, b

A. N#Cc1ccc2c(c1)/C(=C1/Nc3ccccc3/C1=N\OCCN1CC[S+]([O-])CC1)C(=O)N2 [Example 14, hydrochloride]
B. N#Cc1ccc2c(c1)/C(=C1/Nc3ccccc3/C1=N\OCCCN1CCCCC1)C(=O)N2
[Q] Sorting ascending by pIC50, which comes first: A or B ? Field: selected label. Fill in the label of the entry you choose.
[A] A
(A: 7.58, B: 7.97)

###

- Test system: 3T3-L1 pre-adipocytes
- test: Inhibition of adipocyte differentiation and lipid accumulation, Oil Red O
- Format: cell-based
- setupConditions: Mus musculus, 192 h; 3T3-L1, compound 1 μM, MDI-induced differentiation for 8 days, Oil Red O eluted, absorbance 544 nm; read-out: lipid accumulation rate
observationType: activity at 1 µM (%)
Respond with the bare value in %.

Examples with answers:
{"compound": "N#Cc1ccc2c(c1)/C(=C1/Nc3ccccc3/C1=N\\OCCN1CCCCC1)C(=O)N2", "scaleUnit": "%", "reported": 26.2}
{"compound": "N#Cc1ccc2c(c1)/C(=C1/Nc3ccccc3/C1=N\\OCCCN1CCSCC1)C(=O)N2", "scaleUnit": "%", "reported": 27.4}
{"compound": "N#Cc1ccc2c(c1)/C(=C1/Nc3ccccc3/C1=N\\OCCCN1CCCC1)C(=O)N2", "scaleUnit": "%", "reported": 25.1}
{"compound": "N#Cc1ccc2c(c1)/C(=C1/Nc3ccccc3/C1=N\\OCCN1CCS(=O)(=O)CC1)C(=O)N2", "scaleUnit": "%", "reported": 26.6}

[Q] Any idea what its activity at 1 µM is? The compound is N#Cc1ccc2c(c1)/C(=C1/Nc3ccccc3/C1=N\OCCCN1CCNCC1)C(=O)N2
[A] 25.4

[Q] Any idea what its activity at 1 µM is? The compound is N#Cc1ccc2c(c1)/C(=C1/Nc3ccccc3/C1=N\OCCN1CCCC1)C(=O)N2
[A] 25.8

[Q] Any idea what its activity at 1 µM is? The compound is N#Cc1ccc2c(c1)/C(=C1/Nc3ccccc3/C1=N\OCCCN1CCCCC1)C(=O)N2
[A] 33.6

[Q] Any idea what its activity at 1 µM is? The compound is CN1CCN(CCO/N=C2/C(=C3/C(=O)Nc4ccc(C#N)cc43)Nc3ccccc32)CC1
[A] 26

[Q] Any idea what its activity at 1 µM is? The compound is N#Cc1ccc2c(c1)/C(=C1/Nc3ccccc3/C1=N\OCCN1CCCC1C(=O)O)C(=O)N2 (centres unmarked)
[A] 24.8

###

- testedSystem: CXXC5-Dvl interaction (PDZ domain of Dvl (dishevelled) protein / PTD-DBM-FITC)
- test: CXXC5-Dvl binding inhibition, competition of PTD-DBM-FITC on plate-bound Dvl PDZ domain
- setupConditions: purified Dvl PDZ domain 5 μg/mL, 10 μM PTD-DBM-FITC, compounds 0.001-100 μM, FITC fluorescence
observationType: IC50 (nM)

Examples with answers:
{"compound": "N#Cc1ccc2c(c1)/C(=C1/Nc3ccccc3/C1=N\\OCCN1CCCC1C(=O)O)C(=O)N2 (stereo not shown)", "IC50 (nM)": 45.2}
{"compound": "CN1CCN(CCCO/N=C2/C(=C3/C(=O)Nc4ccc(C#N)cc43)Nc3ccccc32)CC1", "IC50 (nM)": 12.3}
{"compound": "N#Cc1ccc2c(c1)/C(=C1/Nc3ccccc3/C1=N\\OCCN1CCCCC1)C(=O)N2", "IC50 (nM)": 9.29}

A. N#Cc1ccc2c(c1)/C(=C1/Nc3ccccc3/C1=N\OCCN1CCCC1)C(=O)N2
B. N#Cc1ccc2c(c1)/C(=C1/Nc3ccccc3/C1=N\OCCN1CCSCC1)C(=O)N2
C. CN1CCN(CCO/N=C2/C(=C3/C(=O)Nc4ccc(C#N)cc43)Nc3ccccc32)CC1
D. N#Cc1ccc2c(c1)/C(=C1/Nc3ccccc3/C1=N\OCCN1CCOCC1)C(=O)N2
E. N#Cc1ccc2c(c1)/C(=C1/Nc3ccccc3/C1=N\OCCCN1CCOCC1)C(=O)N2
[Q] List the 5 entries from lowest IC50 to highest IC50 value. Lab note: final answer is the ordered label list.
[A] B, D, E, C, A
(B: 5.54 nM, D: 8.61 nM, E: 12.7 nM, C: 20.9 nM, A: 37 nM)

I. N#Cc1ccc2c(c1)/C(=C1/Nc3ccccc3/C1=N\OCCCN1CCCC1)C(=O)N2
II. N#Cc1ccc2c(c1)/C(=C1/Nc3ccccc3/C1=N\OCCN1CCS(=O)(=O)CC1)C(=O)N2
III. Cc1cc2c(cc1Cl)NC(=O)/C2=C1\Nc2ccccc2\C1=N/OCCN1CCN(C)CC1 [CK090, reference compound]
[Q] List the 3 entries from lowest IC50 to highest IC50 value. Lab note: final answer is the ordered label list.
[A] II, I, III

P. N#Cc1ccc2c(c1)/C(=C1/Nc3ccccc3/C1=N\OCCCN1CCNCC1)C(=O)N2
Q. N#Cc1ccc2c(c1)/C(=C1/Nc3ccccc3C1=O)C(=O)N2
[Q] Lab notebook, comparison: P versus Q , higher IC50 goes to which? Field: selected label. Fill in the label of the entry you choose.
[A] Q
(Q: 11100 nM, P: 20.4 nM)

###

Reported values of activity at 1 µM for individual entries
- Test system: 3T3-L1 pre-adipocytes
- test: Inhibition of adipocyte differentiation and lipid accumulation, Oil Red O
- Type: cell-based
- setupConditions: Mus musculus, 192 h; 3T3-L1, compound 1 μM, MDI-induced differentiation for 8 days, Oil Red O eluted, absorbance 544 nm; read-out: lipid accumulation rate
Counter-ions that a name gives are not always drawn.
Respond with the bare value in %.

Examples with answers:
{"compound": "CN1CCN(CCCO/N=C2/C(=C3/C(=O)Nc4ccc(C#N)cc43)Nc3ccccc32)CC1 [Example 11]", "activity at 1 µM, %": 24.1}
{"compound": "N#Cc1ccc2c(c1)/C(=C1/Nc3ccccc3/C1=N\\OCCN1CC[S+]([O-])CC1)C(=O)N2 [Example 14, hydrochloride]", "activity at 1 µM, %": 26.8}
{"compound": "N#Cc1ccc2c(c1)/C(=C1/Nc3ccccc3/C1=N\\OCCN1CCNCC1)C(=O)N2 [Example 1]", "activity at 1 µM, %": 32.2}
{"compound": "N#Cc1ccc2c(c1)/C(=C1/Nc3ccccc3/C1=N\\OCCN1CCSCC1)C(=O)N2 [Example 3]", "activity at 1 µM, %": 28.9}
{"compound": "N#Cc1ccc2c(c1)/C(=C1/Nc3ccccc3C1=O)C(=O)N2 [5-cyanoindirubin]", "activity at 1 µM, %": 79}

[Q] Any idea what its activity at 1 µM is? The compound is N#Cc1ccc2c(c1)/C(=C1/Nc3ccccc3/C1=N\OCCN1CCOCC1)C(=O)N2 [Example 2]
[A] 32.3

[Q] Any idea what its activity at 1 µM is? The compound is N#Cc1ccc2c(c1)/C(=C1/Nc3ccccc3/C1=N\OCCCN1CCOCC1)C(=O)N2 [Example 10]
[A] 24.3

[Q] Any idea what its activity at 1 µM is? The compound is O=C1Nc2ccccc2/C1=C1/Nc2ccccc2C1=O [Indirubin, (Z)-[2,3′-biindolinylidene]-2′,3-dione, reference compound]
[A] 96.4
